Source listed as patent US20110163045A1.

Test: Direct UV photolytic degradation of single contaminants in deionized water (collimated beam MP Hg lamp, HPLC/MS/MS)
Assay type: physicochemical
Settings: pH 6, deionized water, polychromatic UV 200-400 nm, 1 mg/l
readout_kind: UV dose for 90% degradation (mJ/cm^2)
Could you give me the number in mJ/cm^2? Just the number is fine.

| compound | measured_result |
| --- | --- |
| CCn1cc(C(=O)O)c(=O)c2cc(F)c(N3CCNCC3)cc21 | 2091 |
| NC(=O)N1c2ccccc2C=Cc2ccccc21 [CPZ, Carbamazepine] | 23000 |
| CC1(C)S[C@@H]2[C@H](NC(=O)[C@H](N)c3ccc(O)cc3)C(=O)N2[C@H]1C(=O)O | 3285 |
| COc1cc(NS(=O)(=O)c2ccc(N)cc2)nc(OC)n1 | 3300 |
| CN(C)[C@@H]1C(O)=C(C(N)=O)C(=O)[C@@]2(O)C(O)=C3C(=O)c4c(O)cccc4[C@@](C)(O)[C@H]3[C@H](O)[C@@H]12 | 2556 |

Name the recorded UV dose for 90% degradation of the compound listed here: O=C(O)c1cn(C2CC2)c2cc(N3CCNCC3)c(F)cc2c1=O
742

Name the recorded UV dose for 90% degradation of the compound listed here: CN(C)[C@@H]1C(O)=C(C(N)=O)C(=O)[C@@]2(O)C(O)=C3C(=O)c4c(O)cccc4[C@@](C)(O)[C@H]3C[C@@H]12
2300

Name the recorded UV dose for 90% degradation of the compound listed here: CCN1CCN(c2cc3c(cc2F)c(=O)c(C(=O)O)cn3C2CC2)CC1
2300

Name the recorded UV dose for 90% degradation of the compound listed here: COc1cc(Cc2cnc(N)nc2N)cc(OC)c1OC
23000

Name the recorded UV dose for 90% degradation of the compound listed here: CC1(C)S[C@@H]2[C@H](NC(=O)[C@H](N)c3ccccc3)C(=O)N2[C@H]1C(=O)O
2875

Name the recorded UV dose for 90% degradation of the compound listed here: Cc1cc(NS(=O)(=O)c2ccc(N)cc2)no1
590

====

Listed here are molecules together with their documented Reduction in UV dose.
Assay: Direct UV photolytic degradation of single contaminants in deionized water (collimated beam MP Hg lamp, HPLC/MS/MS)
Format: physicochemical
Settings: least favorable tested pH vs optimal pH, deionized water
Include the unit after the number when you answer.

Below are worked cases with known answers.
| molecule | Reduction in UV dose |
| --- | --- |
| COc1cc(NS(=O)(=O)c2ccc(N)cc2)nc(OC)n1 | 58.3% |
| Cc1cc(NS(=O)(=O)c2ccc(N)cc2)no1 | 73.4% |
| CCn1cc(C(=O)O)c(=O)c2cc(F)c(N3CCNCC3)cc21 | 84.7% |
| O=C(O)c1cn(C2CC2)c2cc(N3CCNCC3)c(F)cc2c1=O | 80.7% |
| CCN1CCN(c2cc3c(cc2F)c(=O)c(C(=O)O)cn3C2CC2)CC1 | 68.2% |

Name the recorded Reduction in UV dose of the molecule listed here: CC1(C)S[C@@H]2[C@H](NC(=O)[C@H](N)c3ccc(O)cc3)C(=O)N2[C@H]1C(=O)O
36.4%

Name the recorded Reduction in UV dose of the molecule listed here: CC1(C)S[C@@H]2[C@H](NC(=O)[C@H](N)c3ccccc3)C(=O)N2[C@H]1C(=O)O
33.4%

Name the recorded Reduction in UV dose of the molecule listed here: NC(=O)N1c2ccccc2C=Cc2ccccc21 [CPZ, Carbamazepine]
66.6%

====

Experiment: Direct UV photolytic degradation of single contaminants in deionized water (collimated beam MP Hg lamp, HPLC/MS/MS)
Format: physicochemical
Details: pH 7, deionized water, polychromatic UV 200-400 nm, 1 mg/l
readout_kind: UV dose for 90% degradation (mJ/cm^2)
Could you give me the number in mJ/cm^2? Just the number is fine.

Below are worked cases with known answers.
| molecule | endpoint_unit | UV dose for 90% degradation |
| --- | --- | --- |
| COc1cc(Cc2cnc(N)nc2N)cc(OC)c1OC | mJ/cm^2 | 3833 |
| O=C(O)c1cn(C2CC2)c2cc(N3CCNCC3)c(F)cc2c1=O | mJ/cm^2 | 403 |

Name the recorded UV dose for 90% degradation of the molecule listed here: CCn1cc(C(=O)O)c(=O)c2cc(F)c(N3CCNCC3)cc21
697

Name the recorded UV dose for 90% degradation of the molecule listed here: CN(C)[C@@H]1C(O)=C(C(N)=O)C(=O)[C@@]2(O)C(O)=C3C(=O)c4c(O)cccc4[C@@](C)(O)[C@H]3C[C@@H]12
1200

Name the recorded UV dose for 90% degradation of the molecule listed here: CCN1CCN(c2cc3c(cc2F)c(=O)c(C(=O)O)cn3C2CC2)CC1
1045

Name the recorded UV dose for 90% degradation of the molecule listed here: NC(=O)N1c2ccccc2C=Cc2ccccc21 [CPZ, Carbamazepine]
11500

Name the recorded UV dose for 90% degradation of the molecule listed here: COc1cc(NS(=O)(=O)c2ccc(N)cc2)nc(OC)n1
5750

Name the recorded UV dose for 90% degradation of the molecule listed here: CC1(C)S[C@@H]2[C@H](NC(=O)[C@H](N)c3ccccc3)C(=O)N2[C@H]1C(=O)O
2875

Name the recorded UV dose for 90% degradation of the molecule listed here: CN(C)[C@@H]1C(O)=C(C(N)=O)C(=O)[C@@]2(O)C(O)=C3C(=O)c4c(O)cccc4[C@@](C)(O)[C@H]3[C@H](O)[C@@H]12
1643

Name the recorded UV dose for 90% degradation of the molecule listed here: CC1(C)S[C@@H]2[C@H](NC(=O)[C@H](N)c3ccc(O)cc3)C(=O)N2[C@H]1C(=O)O
2090

====

Test: Direct UV photolytic degradation of single contaminants in deionized water (collimated beam MP Hg lamp, HPLC/MS/MS)
Format: physicochemical
Settings: pH 8, deionized water, polychromatic UV 200-400 nm, 1 mg/l
Listed here are compounds together with their documented UV dose for 90% degradation.
Could you give me the number in mJ/cm2? Just the number is fine.

| compound | UV dose for 90% degradation (mJ/cm2) |
| --- | --- |
| COc1cc(Cc2cnc(N)nc2N)cc(OC)c1OC | 1770 |
| CC1(C)S[C@@H]2[C@H](NC(=O)[C@H](N)c3ccccc3)C(=O)N2[C@H]1C(=O)O | 1916 |
| NC(=O)N1c2ccccc2C=Cc2ccccc21 [CPZ, Carbamazepine] | 7667 |

Name the recorded UV dose for 90% degradation of the compound listed here: CC1(C)S[C@@H]2[C@H](NC(=O)[C@H](N)c3ccc(O)cc3)C(=O)N2[C@H]1C(=O)O
2090

====

Test: Direct UV photolytic degradation of single contaminants in deionized water (collimated beam MP Hg lamp, HPLC/MS/MS)
Assay type: physicochemical
Details: pH 5, deionized water, polychromatic UV 200-400 nm, 1 mg/l
readout_kind: UV dose for 90% degradation

| compound | UV dose for 90% degradation |
| --- | --- |
| CCN1CCN(c2cc3c(cc2F)c(=O)c(C(=O)O)cn3C2CC2)CC1 [ENR, enrofloxacin] | 3286 mJ/cm^2 |

Name the recorded UV dose for 90% degradation of the compound listed here: CN(C)[C@@H]1C(O)=C(C(N)=O)C(=O)[C@@]2(O)C(O)=C3C(=O)c4c(O)cccc4[C@@](C)(O)[C@H]3[C@H](O)[C@@H]12 [OTC, oxytetracycline]
5750 mJ/cm^2

Name the recorded UV dose for 90% degradation of the compound listed here: O=C(O)c1cn(C2CC2)c2cc(N3CCNCC3)c(F)cc2c1=O [CPR, Ciprofloxacin]
2091 mJ/cm^2

Name the recorded UV dose for 90% degradation of the compound listed here: CN(C)[C@@H]1C(O)=C(C(N)=O)C(=O)[C@@]2(O)C(O)=C3C(=O)c4c(O)cccc4[C@@](C)(O)[C@H]3C[C@@H]12 [TC, Tetracycline]
8000 mJ/cm^2

Name the recorded UV dose for 90% degradation of the compound listed here: CCn1cc(C(=O)O)c(=O)c2cc(F)c(N3CCNCC3)cc21 [NOR, norfloxacin]
4600 mJ/cm^2

Name the recorded UV dose for 90% degradation of the compound listed here: COc1cc(NS(=O)(=O)c2ccc(N)cc2)nc(OC)n1 [SMT, sulfadimethoxine]
2400 mJ/cm^2
